System: NCI-H460
Assay Summary: Cytotoxicity against human H460 cells assessed as cell viability after 3 days by sulforhodamine B assay
Type: functional, cell-based
Applied Conditions: NCI-H460, 72 h
Give measured IC50 for each item. Keep answers brief.
Express your answer in nM, writing the number without its unit.

Exam item: Write down IC50 measured for item O=Cc1cn(Cc2ccc(Br)c(Br)c2)c2ccccc12
Marked response: 63

Exam item: Determine its reported IC50: O=[N+]([O-])c1ccc(Cn2cc(CO)c3ccccc32)cc1
Marked response: 79

Exam item: Supply reported IC50 belonging to this compound: COc1ccc(Cn2cc(CO)c3ccccc32)cc1
Marked response: 79

Exam item: Please give measured IC50 of the following entry: O=Cc1cn(Cc2cccc(F)c2)c2ccccc12
Marked response: 31

Exam item: Given O=Cc1cn(Cc2cccc(C(F)(F)F)c2)c2ccccc12 , respond with its IC50.
Marked response: 140

Exam item: Look up and state reported IC50 for O=Cc1cn(Cc2ccc(Cl)cc2)c2ccc(Cl)cc12
Marked response: 400

Exam item: Return value of IC50 for input OCc1cn(Cc2ccc(F)cc2)c2ccccc12 , no commentary.
Marked response: 118

Exam item: Item OCc1cn(Cc2cccc(F)c2)c2ccc(Cl)cc12 : provide IC50
Marked response: 70

Exam item: Specify measured IC50 for OCc1cn(Cc2ccc(Cl)c(Cl)c2)c2ccccc12 .
Marked response: 31

Exam item: Please supply the value of reported IC50 for the item Cc1ccc(Cn2cc(CO)c3ccccc32)cc1
Marked response: 31

Exam item: Identify measured IC50 associated with OCc1cn(Cc2ccc(Cl)cc2)c2ccc(F)cc12
Marked response: 30

Exam item: Please give measured IC50 of the following entry: CC(O)c1cn(Cc2ccc(Cl)cc2)c2ccccc12 (stereo unspecified)
Marked response: 25100

Exam item: Name the recorded IC50 of the compound listed here: COC(=O)c1cn(Cc2ccc(Cl)cc2)c2ccccc12
Marked response: 31600

Exam item: Please report the measured IC50 for COC(=O)CNCc1cn(Cc2ccc(Cl)cc2)c2ccccc12
Marked response: 100

Exam item: Tell me its IC50 given OCc1cn(Cc2ccccc2)c2ccccc12 as the entry.
Marked response: 112

Exam item: Note IC50 for the compound shown: O=CC1C(=O)N(Cc2ccc(Cl)cc2)c2cc(Cl)ccc21 (stereo unspecified)
Marked response: 18200

Exam item: Give reported IC50 value for OCc1cn(Cc2ccccc2Cl)c2ccccc12
Marked response: 100

Exam item: State its IC50: O=Cc1cn(Cc2ccccc2F)c2ccccc12
Marked response: 100

Exam item: Give IC50 for the following compound: Cc1ccc(Cn2cc(C=O)c3ccccc32)cc1
Marked response: 63

Exam item: Tell me IC50 reported for OCc1cn(Cc2ccc(Cl)cc2)c2ccccc12
Marked response: 16

Exam item: For the compound Cc1cccc(Cn2cc(CO)c3ccccc32)c1 , give its measured IC50 value.
Marked response: 31

Exam item: Return reported IC50. Input compound: OCc1cn(Cc2cccc(I)c2)c2ccccc12
Marked response: 100

Exam item: Give the reported IC50 for this compound. O=Cc1cn(Cc2cccc(Cl)c2)c2ccc(F)cc12
Marked response: 370

Exam item: Using known records, supply IC50 for O=Cc1cn(Cc2ccc(Cl)cc2Cl)c2ccccc12
Marked response: 100

Exam item: Indicate its recorded IC50; the compound in question is O=Cc1cn(CCCOc2ccc(Cl)cc2)c2ccccc12
Marked response: 45

Exam item: Given the compound O=Cc1cn(Cc2cccc([N+](=O)[O-])c2)c2ccccc12 , write its reported IC50.
Marked response: 39

Exam item: Tell me measured IC50 for OCc1cn(Cc2ccc(Cl)cc2Cl)c2ccccc12 please.
Marked response: 79

Exam item: Report measured IC50; entry is O=Cc1cn(Cc2ccc(Br)cc2)c2ccccc12
Marked response: 31

Exam item: Report IC50 for OCc1cn(Cc2ccc(Br)c(Br)c2)c2ccccc12
Marked response: 50

Exam item: Please look at this compound and report its IC50: O=Cc1cn(Cc2cccc(Br)c2)c2ccccc12
Marked response: 39

Exam item: Return reported IC50. Input compound: COC(=O)c1cn(Cc2ccc(Br)cc2)c2ccccc12
Marked response: 5000

Exam item: Specify IC50 for OCc1cn(Cc2ccc(Br)cc2)c2ccccc12 and stop.
Marked response: 31

Exam item: Please indicate IC50 recorded for O=Cc1cn(Cc2cccc(Cl)c2)c2ccccc12
Marked response: 37

Exam item: Please list IC50 recorded for the compound OCc1cc2cc(F)ccc2n1Cc1ccc(Cl)cc1
Marked response: 11500

Exam item: For the compound OCc1cn(Cc2cccc(C(F)(F)F)c2)c2ccccc12 , give its measured IC50 value.
Marked response: 39

Exam item: Read the entry O=Cc1cn(Cc2ccc(Cl)cc2)c2cc(Br)ccc12 and write its reported IC50.
Marked response: 90

Exam item: Report measured IC50; entry is O=Cc1cn(Cc2ccccc2)c2ccccc12
Marked response: 45

====

Test system: NCI-H460
Assay Summary: Cytotoxicity against human H460 cells assessed as cell viability after 3 days by sulforhodamine B assay
Assay type: functional, cell-based
Applied Conditions: NCI-H460, 72 h
Readout Label: IC50

Exam item: Could you please provide reported IC50 for c1ccc(Cn2ccc3ccccc32)cc1 ? Thanks!
Marked response: > 31.6 µM

Exam item: Return reported IC50. Input compound: CC(=O)c1cn(Cc2cccc(Cl)c2)c2ccccc12
Marked response: > 31.6 µM

Exam item: Consider the compound Brc1cccc(Cn2cc(Cc3cn(Cc4cccc(Br)c4)c4ccccc34)c3ccccc32)c1 and give its recorded IC50.
Marked response: > 31.6 µM

Exam item: Return the recorded IC50 value; entry: O=C(O)c1cn(Cc2ccc(Cl)cc2)c2ccccc12
Marked response: > 31.6 µM

Exam item: Specify reported IC50 for the compound shown: Cc1cn(Cc2ccc(Cl)cc2)c2ccccc12
Marked response: > 31.6 µM

Exam item: Write down IC50 measured for item CC(=O)c1cn(Cc2ccccc2Cl)c2ccccc12
Marked response: > 31.6 µM

Exam item: Return IC50 for the following compound: CC(=O)c1cn(Cc2ccc(Cl)cc2)c2ccccc12
Marked response: > 31.6 µM

Exam item: Entry OCCCc1cn(Cc2ccccc2)c2ccccc12 needs its IC50 filled in; supply it.
Marked response: > 31.6 µM

Exam item: Please indicate IC50 recorded for Clc1cccc(Cn2cc(Cc3cn(Cc4cccc(Cl)c4)c4ccccc34)c3ccccc32)c1
Marked response: > 31.6 µM
